B1: VH:VL chains; a variant is named by its letters at X, in order (parent)
chain 1: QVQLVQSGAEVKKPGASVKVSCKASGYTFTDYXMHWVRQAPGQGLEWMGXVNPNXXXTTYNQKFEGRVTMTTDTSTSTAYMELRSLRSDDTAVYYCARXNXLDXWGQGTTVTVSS
chain 2: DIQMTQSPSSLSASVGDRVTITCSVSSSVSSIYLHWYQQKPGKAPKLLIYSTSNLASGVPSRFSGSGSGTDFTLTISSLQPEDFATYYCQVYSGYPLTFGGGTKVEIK

# Variants of: B1
# ASSAY_METHOD_TEXT: yeast display scFab, FACS + sequencing
# CONDITION_DESCRIPTION: with MET
This is one part of the list. How many sequences the whole screen found active is unknown.
PROPERTY: antigen binding call

{"columns": ["MUTATION_SPEC", "PROPERTY", "RESULT"],
 "data": [
  ["VKGRASWS", "antigen binding call", "no binding"],
  ["YRRGTSVD", "antigen binding call", "binds"],
  ["VRTEDSSV", "antigen binding call", "binds"],
  ["YKGRGSWS", "antigen binding call", "binds"],
  ["YRRGAAWA", "antigen binding call", "binds"],
  ["DEETNSGA", "antigen binding call", "no binding"]
]}

IN: What antigen binding call value was documented for this variant, "YRRGGAWA" ?
OUT: binds

IN: antigen binding call lookup needed for "FKKGSYVF" , thanks.
OUT: no binding

IN: What does the record list as antigen binding call for "VKGRASSV" ?
OUT: no binding

IN: Suppose we examine the variant "YREKAAWA" ; what antigen binding call value has been reported?
OUT: no binding

IN: Which antigen binding call is listed for "VRRKSSSV" ?
OUT: binds

IN: Request the reported antigen binding call associated with "DTGTGDSA"
OUT: no binding

IN: Field request: antigen binding call | item: "FKKGSAVV"
OUT: binds

IN: Query (variant): "VRAGDSSV" ; field requested: antigen binding call
OUT: binds

IN: Field request: antigen binding call | item: "YRRGGSVD"
OUT: binds

IN: State the recorded antigen binding call for this entry: "SRTRGFVV"
OUT: no binding

IN: Consider the variant shown here: "YTRGADWA" What is its recorded antigen binding call?
OUT: no binding

IN: For the variant shown here, "DTREGDVD" , give the reported antigen binding call.
OUT: no binding

IN: Form field: reported antigen binding call of "YRRRGAGA"
OUT: binds

IN: Consider the variant shown here: "VRTEDDWV" What is its recorded antigen binding call?
OUT: no binding

IN: Tell me the measured antigen binding call of "FKKGSAAV" , please.
OUT: binds

Origin of values: the emibetuzumab library of Makowski et al. (2022)
